assay: binders of probe aHhip on microarray, primary screen, stem cell growth factor project, biochemical, small-molecule microarray, fluorescence 635/667 (AID 1087); conditions: higher = more signal;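 also: score merges spot fluorescence at 667nm with spot signal to noise ratio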
measure: composite z-score
Give only the figure.

## Task What does the data say about its composite z-score? Entry: `C=CC[C@]1(C(N)=O)N=C(c2ccc(OCCCO)cc2)O[C@H]1c1ccccc1CN=[N+]=[N-]`
## Result -0.0994

## Task Using the record for `COc1ccc(-c2cc3c(c(-c4ccccc4)n2)[Si](C(C)C)(C(C)C)O[C@H]3c2ccccc2)cn1` , report its composite z-score.
## Result 0.316

## Task I'd like to know its composite z-score. The compound in question is `COc1ccc([Si](C)(C)[C@H]2[C@H](CCO)O[C@@]3(C(=O)N(Cc4ccccc4)c4ccc(N5C(=O)c6cccc7cccc5c67)cc43)[C@@H]2C)cc1`
## Result 3.71

## Task Which measured composite z-score value corresponds to `O=C1c2ccccc2[C@](Cc2ccccc2I)(C(=O)NCC(F)(F)F)[C@H](c2ccc(CO)cc2)N1Cc1ccccc1C(F)(F)F` ?
## Result -0.466

## Task Endpoint output: composite z-score of `CC(C)=C1C(=O)C(c2ccccc2)=C2CN3C(=O)N(CCc4ccccc4)C(=O)[C@]3(Cc3ccccc3)[C@H]21` . Value?
## Result -0.112

## Task Fill in the blank: the reported composite z-score of C=CC[C@]1(C(=O)NCC(O)CO)N=C(c2ccc(OCCCO)cc2)O[C@H]1c1ccccc1 (some centres not stated) is ____.
## Result -0.124

## Task Fill in: composite z-score of CCOC(=O)C1=CCC(c2cccc3ccccc23)N(S(=O)(=O)c2ccc(C)cc2)C1 (configuration not stated) is ___
## Result -0.0237

Provenance of the data: PubChem BioAssay
